- REPORTED_CONDITIONS: 328.15 K; 101.33 kPa; Liquid; Vibrating tube method
PROPERTY_NAME: mass density (kg/m3)
Give your result in kg/m3 as a bare value.

-- ask Given the compound CCCCCCCC/C=C\CCCCCCCC(=O)OC [methyl cis-9-octadecenoate] , what is its reported mass density?
-- reply 848.7

-- ask Please give the measured mass density for this compound: CCCCC/C=C\C/C=C\CCCCCCCC(=O)OC [methyl (Z,Z)-9,12-octadecadienate]
-- reply 860.7

-- ask Data request, read-out mass density, for CCCCCCCCCCCC(=O)OCC [ethyl dodecanoate]
-- reply 835.1

====

- REPORTED_CONDITIONS: 333.15 K; 101.33 kPa; Liquid; Concentric cylinders viscometry
± gives the expanded uncertainty stated by the source.
Provide the reported viscosity of each item.
Entry format: amount then unit.

-- ask Quick one: viscosity for CCCCCCCCCCCC(=O)OC [methyl dodecanoate] ?
-- reply 1.471 ± 0.02 mPa·s

-- ask Quick one: viscosity of CCCCCCCCCC(=O)OC [methyl decanoate] ?
-- reply 1.086 ± 0.011 mPa·s

-- ask Fill blank: measured viscosity of the compound CCCCCCCC(=O)OC [methyl octanoate] is ____.
-- reply 0.7998 ± 0.009 mPa·s

-- ask Dear colleague, I am looking for the recorded viscosity of the following compound: CCCCCCCCCCCCCC(=O)OC [methyl tetradecanoate]
-- reply 1.95 ± 0.025 mPa·s

-- ask Which measured viscosity value corresponds to CCCCCCCCCCCCCCCC(=O)OCC [ethyl hexadecanoate] ?
-- reply 2.637 ± 0.025 mPa·s

-- ask Could you tell me which viscosity is on file for CCCCCCCCCCCC(=O)OCC [ethyl dodecanoate] ?
-- reply 1.57 ± 0.016 mPa·s

-- ask Fill in the blank: the reported viscosity of CCCCC/C=C\C/C=C\CCCCCCCC(=O)OC [methyl (Z,Z)-9,12-octadecadienate] is ____.
-- reply 2.266 ± 0.022 mPa·s

-- ask Please give the measured viscosity for this compound: CCCCCCCCCCCCCCCC(=O)OC [methyl hexadecanoate]
-- reply 2.508 ± 0.024 mPa·s

-- ask Field request: viscosity | item: CCCCCCCC/C=C\CCCCCCCC(=O)OC [methyl cis-9-octadecenoate]
-- reply 2.638 ± 0.025 mPa·s

-- ask Quick check: viscosity of CCCCCCCCCCCCCCCCCC(=O)OCC [ethyl octadecanoate] ?
-- reply 3.307 ± 0.031 mPa·s

-- ask Dear colleague, I am looking for the recorded viscosity of the following compound: CCCCCCCCCCCCCC(=O)OCC [ethyl tetradecanoate]
-- reply 2.055 ± 0.02 mPa·s

-- ask Entry CCCCCCCC/C=C\CCCCCCCC(=O)OCC [ethyl (Z)-9-octadeceneoate] has what viscosity?
-- reply 2.729 ± 0.035 mPa·s

-- ask I am curious: what viscosity value has been reported for CCCCCCCCCCCCCCCCCC(=O)OC [methyl octadecanoate] ?
-- reply 3.225 ± 0.031 mPa·s

-- ask Name the recorded viscosity for CCCCCCCCCC(=O)OCC [ethyl decanoate] .
-- reply 1.169 ± 0.012 mPa·s

====

Please go through the items and note down their viscosity.
- REPORTED_CONDITIONS: 308.15 K; 101.33 kPa; Liquid; Concentric cylinders viscometry
Expressed in mPa·s, but write only the number.

-- ask I have this molecule here, CCCCCCCC/C=C\CCCCCCCC(=O)OCC [ethyl (Z)-9-octadeceneoate] , and I need its recorded viscosity.
-- reply 4.525

-- ask Given the molecule CCCCCCCCCCCC(=O)OC [methyl dodecanoate] , what is its reported viscosity?
-- reply 2.289

-- ask Entry CCCCCCCCCC(=O)OC [methyl decanoate] has what viscosity?
-- reply 1.609

-- ask Looking for the measured viscosity of CCCCC/C=C\C/C=C\CCCCCCCC(=O)OC [methyl (Z,Z)-9,12-octadecadienate] , can you help?
-- reply 3.567

-- ask Endpoint output: viscosity of CCCCCCCCCCCCCC(=O)OCC [ethyl tetradecanoate] . Value?
-- reply 3.328

-- ask viscosity for CCCCCCCC(=O)OC [methyl octanoate] ?
-- reply 1.123

-- ask // query viscosity value for entry CCCCCCCCCCCCCCCC(=O)OCC [ethyl hexadecanoate]
-- reply 4.44

-- ask Form field: reported viscosity of CCCCCCCCCCCCCC(=O)OC [methyl tetradecanoate]
-- reply 3.165

-- ask Which viscosity value is on record for CCCCCCCC/C=C\CCCCCCCC(=O)OC [methyl cis-9-octadecenoate] ?
-- reply 4.401

-- ask Value lookup for viscosity; key = CCCCCCCCCCCC(=O)OCC [ethyl dodecanoate]
-- reply 2.446

-- ask So what does the record say about viscosity for CCCCCCCCCCCCCCCC(=O)OC [methyl hexadecanoate] ?
-- reply 4.212

-- ask Fill in: viscosity of CCCCCCCCCC(=O)OCC [ethyl decanoate] is ___
-- reply 1.745
